- systemName: DOT1L (1-420) (human, UniProt Q8TEK3 1-420)
- Sequence (Q8TEK3 1-420): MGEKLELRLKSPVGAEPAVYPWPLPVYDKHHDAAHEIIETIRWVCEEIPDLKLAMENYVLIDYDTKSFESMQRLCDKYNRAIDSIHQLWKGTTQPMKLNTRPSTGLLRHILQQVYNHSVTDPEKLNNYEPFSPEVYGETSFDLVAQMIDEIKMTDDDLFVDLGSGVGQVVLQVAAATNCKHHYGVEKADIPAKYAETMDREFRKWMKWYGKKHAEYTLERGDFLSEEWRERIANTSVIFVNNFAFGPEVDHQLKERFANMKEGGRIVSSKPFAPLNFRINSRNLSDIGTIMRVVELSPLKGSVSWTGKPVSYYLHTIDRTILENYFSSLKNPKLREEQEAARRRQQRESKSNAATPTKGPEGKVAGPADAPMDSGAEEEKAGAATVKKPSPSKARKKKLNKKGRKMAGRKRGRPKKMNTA
- experimentSummary: fluorescence polarization; n = 2; FP: 5 nM probe, 100 mM NaCl, 20 mM Tris-HCl pH 7.5, 5% glycerol, 0.5 mM TCEP, 25 °C, 10 min; footprinting at ambient temperature
- measurementParameters: protein: recombinant; tags: His6 cleaved (PreScission); label: 5'-FAM on strand 1; 5' overhang 2 nt (CC) on strand 2
readoutLabel: pKd
When answering, recall that pKd equals minus log10 of the concentration in mol/L, and write that number alone.

Prompt: What value of pKd has been reported for the following binder? FAM-dsDNA probe (dsDNA) DNA 1: CTACAGTTCGTCAGGATTCC DNA 2: CCGGAATCCTGACGAACTGTAG
Response: 6.96
